Measured IC50 of individual entries
- Tested on: human immuno deficiency virus
- method-summary: Effect of compounds of the formula I on HIV in H9 cells (HIV multiplication in cell culture, HIV antigen containing cells)
- Assay type: cell-based
- condition-parameters: Human immunodeficiency virus 1, HIV (HTLV-IIIB), 6-7 days, 37° C., read-out: Concentration for 50% inhibition (IC50) of human immuno deficiency virus multiplication in cell culture
metric-name: IC50 (µM)

- Nc1ncnc2c1ncn2[C@@H]1C[C@H](CO)[C@@H](CO)O1: 10
- Nc1ccn([C@H]2C[C@H](CO)[C@@H](CO)O2)c(=O)n1: 0.01
- Nc1ccn([C@@H]2C[C@H](CO)[C@@H](CO)O2)c(=O)n1: 5
- Cc1cn([C@H]2C[C@H](CO)[C@@H](CO)O2)c(=O)[nH]c1=O: 5
- Cc1cn([C@@H]2C[C@H](CO)[C@@H](CO)O2)c(=O)[nH]c1=O: 10
